Entries and their EC50
Target system: Ras-related protein Rab-2A (Canis lupus familiaris, UniProt P61105)
Sequence (P61105 whole entry): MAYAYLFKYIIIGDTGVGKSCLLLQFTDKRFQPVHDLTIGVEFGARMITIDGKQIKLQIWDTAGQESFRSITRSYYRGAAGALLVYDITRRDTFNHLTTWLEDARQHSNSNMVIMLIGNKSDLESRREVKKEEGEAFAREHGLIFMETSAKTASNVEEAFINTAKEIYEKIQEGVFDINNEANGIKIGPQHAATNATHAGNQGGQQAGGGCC
Measurement description: Rab2 wildtype GTP-binding inhibitors, SAR follow-up, biochemical, additional analogs, bead-based flow cytometry, multiplex (AID 2046)
Measurement parameters: inactive by the depositor's call

>  <Molecule>
O=C(C#Cc1ccccc1)c1ccc(F)cc1 [UNM-0000306059]

>  <Target system>
Ras-related protein Rab-2A (Canis lupus familiaris, UniProt P61105)

>  <EC50 (µM)>
30

$$$$
>  <Molecule>
CCCCS(=O)(=O)n1c(N)c(C#N)c(-c2cc(OC)c(OC)c(OC)c2)c1C(=O)c1ccccc1

>  <Target system>
Ras-related protein Rab-2A (Canis lupus familiaris, UniProt P61105)

>  <EC50 (µM)>
30

$$$$
>  <Molecule>
O=C1Nc2cccc(Br)c2/C1=C1/Cc2ccccc2C1=O

>  <Target system>
Ras-related protein Rab-2A (Canis lupus familiaris, UniProt P61105)

>  <EC50 (µM)>
30

$$$$
